# Tested on: MDA-N
# test-method-notes: NCI tumour cell line growth inhibition, 48 h
Overview of recorded TGI for various compounds

Below are worked cases with known answers.
compound	property-name	data-value
O=C(NCCN1CCOCC1)c1cn2c(ccc3sc4ccccc4c(=O)c32)n1	TGI	> 100 µM
CC(NC(=O)NC(C)(C)C)NC(=O)C(N)CC(=O)O (stereo unspecified)	TGI	> 100 µM
O=C(O)C(O)C(O)C(=O)O (stereo unspecified)	TGI	> 100 µM

## Input Which value of TGI has been reported for c1ccc(C(NCC2CCO2)(c2ccccc2)c2ccccc2)cc1 (stereo unspecified) in the records?
## Output 54.5 µM

## Input Which value of TGI has been reported for C=C1C(=O)O[C@H]2C[C@@]3(COC(C)=O)C=COC=C(COC(=O)C(C)C)C3CC12 (stereo partly specified) in the records?
## Output > 100 µM

====

# System: K-562 leukemia
# test-method-notes: NCI tumour cell line growth inhibition, 48 h
Overview of recorded TGI for various molecules

molecule	tested-on	TGI
Cc1cnc2sn(-c3ccc([N+](=O)[O-])cc3)c(=O)c2c1	K-562 leukemia	> 100 µM

## Input For the record Cc1nc(-c2ccccc2)n2nc(NCCCN3CCOCC3)ncc12 , what value of TGI is listed for K-562 leukemia?
## Output > 25 µM

## Input For the record CN(CCCCCl)P(=O)(OCCS(=O)(=O)CC(NC(=O)CCC(N)C(=O)O)C(=O)NC(C(=O)O)c1ccccc1)OCC1OC(n2ccc(N)nc2=O)C(F)(F)C1O (stereo not given) , what value of TGI is listed for K-562 leukemia?
## Output > 100 µM

## Input For the record CC(C)(C)c1cc(C(O)(C(F)(F)F)C(F)(F)F)c2c(c1)C(C(F)(F)F)(C(F)(F)F)OC(C)(C(C)(C)C)N2 (stereo not given) , what value of TGI is listed for K-562 leukemia?
## Output 12.7 µM

## Input For the record NC(=S)/N=C(/c1nc2ccc(Cl)cc2[nH]c1=O)C(O)c1ccccc1Cl (stereo not given) , what value of TGI is listed for K-562 leukemia?
## Output > 100 µM

====

Overview of recorded TGI for various molecules
# Test system: U251 CNS
# test-method-notes: NCI tumour cell line growth inhibition, 48 h

Below are worked cases with known answers.
molecule	tested-on	TGI
CN(C(=O)C12C3C4C5C3C1(C(=O)C13C6C7C8C6C1C8C73)C5C42)C(C)(C)C (stereo not given)	U251 CNS	> 50 µM
CN(C(=O)Cc1ccccc1)n1cnn(CC(=O)OC(C)(C)C)c1=S	U251 CNS	> 10 µM
c1ccc2c(c1)c1c(n2CCOCCN2CCCC2)CCCC1	U251 CNS	25.8 µM
CCC(O)c1ccc(Br)cc1NC(=O)c1cccc(Cl)c1 (stereo not given)	U251 CNS	31.8 µM

## Input For the record O=C1CC(c2ccccc2)C2(C(=O)NC(=S)NC2=O)C(c2ccccc2)C1 (stereo not given) , what value of TGI is listed for U251 CNS?
## Output > 75 µM

## Input For the record O=C(Nc1cc(C(F)(F)F)ccc1Cl)c1ccc(NC2=C(Cl)C(=O)N(Cc3ccccc3)C2=O)cc1 , what value of TGI is listed for U251 CNS?
## Output > 100 µM

## Input For the record O=c1cc(CO)oc2c3c(cc(O)c12)OCC(COC1OC(CO)C(O)C(O)C1O)=CC3 (stereo not given) , what value of TGI is listed for U251 CNS?
## Output > 100 µM

## Input For the record COc1cc2nc(SCc3cc(OC)c(OC)c(OC)c3)n(Cc3ccccc3)c(=O)c2cc1OC , what value of TGI is listed for U251 CNS?
## Output 19.3 µM

## Input For the record COc1cc2ncn(-c3cc(OCc4ccccc4C(F)(F)F)c(C(=O)N(C)C)s3)c2cc1OC , what value of TGI is listed for U251 CNS?
## Output > 25 µM

## Input For the record CC(C)(C)OC(=O)N(CCCCNC(=O)OCc1ccccc1)CCCNC(=O)OCc1ccccc1 , what value of TGI is listed for U251 CNS?
## Output > 100 µM

====

# Test system: SK-MEL-5 melanoma
# test-method-notes: NCI tumour cell line growth inhibition, 48 h
property-name: GI50

Below are worked cases with known answers.
compound	GI50
CCC(O)c1ccc(Br)cc1NC(=O)c1cccc(Cl)c1 (configuration not stated)	14.5 µM
Cc1nc(-c2ccccc2)n2nc(NCCCN3CCOCC3)ncc12	> 16.7 µM
COc1ccc(/C=C/C(=O)/C=C/c2cc3ccccc3[nH]c2=O)cc1	11 µM
Cc1nc(N)nc2c1CCC(O)S2 (configuration not stated)	12.5 µM

## Input Which value of GI50 has been reported for CCC[CH2][Sn]([Cl])([Cl])[CH2]CCC in the records?
## Output 0.509 µM

## Input Which value of GI50 has been reported for O=C1/C(=C/c2cccc(Br)c2)COc2ccc(O)cc21 in the records?
## Output 1.91 µM

## Input Which value of GI50 has been reported for COc1cc2c(c(OC)c1OC)-c1ncc3c(OC)c(OC)c(OC)cc3c1C2 in the records?
## Output 16 µM

## Input Which value of GI50 has been reported for COc1ccccc1C#Cc1ccccc1C#CCCCCO in the records?
## Output 14.1 µM

====

# Tested on: HCC-2998 colon
# test-method-notes: NCI tumour cell line growth inhibition, 48 h
property-name: GI50

molecule	GI50
CN(CCCCCl)P(=O)(OCCS(=O)(=O)CC(NC(=O)CCC(N)C(=O)O)C(=O)NC(C(=O)O)c1ccccc1)OCC1OC(n2ccc(N)nc2=O)C(F)(F)C1O (centres undefined)	24.5 µM
Cc1nc(-c2ccccc2)n2nc(NCCCN3CCOCC3)ncc12	> 25 µM

## Input Which value of GI50 has been reported for Cn1c(C(=O)c2ccncc2)cc2ccccc21 in the records?
## Output > 100 µM

## Input Which value of GI50 has been reported for CCCCCCCCOC(=O)CC[C@@H](C)[C@H]1CC[C@H]2[C@@H]3[C@H](OC(=O)CCN)C[C@@H]4C[C@H](OC(=O)CCN)CC[C@]4(C)[C@H]3C[C@H](OC(=O)CCN)[C@]12C in the records?
## Output 13.8 µM

====

# Test system: MALME-3M melanoma
# test-method-notes: NCI tumour cell line growth inhibition, 48 h
Overview of recorded GI50 for various compounds

smiles-repr	tested-on	GI50
Nc1ccccc1C#C/C=C\C#Cc1ccc(OCCCNC(=O)c2cc3ccccc3[nH]2)cc1	MALME-3M melanoma	1080 nM
COc1ccc2c(=O)cc(-c3ccccc3)[nH]c2c1	MALME-3M melanoma	684 nM
COc1ccc(-c2cs/c(=N\N=C\c3ccc(O)cc3O)n2/N=C/c2ccc(O)cc2O)cc1	MALME-3M melanoma	2200 nM

## Input Which value of GI50 has been reported for COC(=O)c1cc2c3ccccc3n3c(=O)c4cc5ccc(N(S(=O)(=O)c6ccc(C)cc6)S(=O)(=O)c6ccc(C)cc6)cc5nc4c(n1)c23 in the records?
## Output 69700 nM

## Input Which value of GI50 has been reported for CC(=O)c1c(C)nc(SSc2nc(C)c(C(C)=O)c(-c3ccc(Cl)cc3)c2C#N)c(C#N)c1-c1ccc(Cl)cc1 in the records?
## Output 50.9 µg/mL

====

Overview of recorded TGI for various compounds
# System: SF-539 CNS
# test-method-notes: NCI tumour cell line growth inhibition, 48 h

compound	TGI
CN(C)CCNC(=O)c1ccc(NCCCN(C)CCCNc2ccc(C(=O)NCCN(C)C)c3[nH]c4ccccc4c(=O)c23)c2c(=O)c3ccccc3[nH]c12	2.24 µM
COC(=O)C1Cc2cc3c(cc2C1=O)CCCC3 (centres undefined)	> 100 µM
O=S(=O)(NCCNc1nccc(-c2c(-c3ccc(F)c(O)c3)nc3sccn23)n1)c1ccc(F)cc1	25.3 µM
CC[C@H](Nc1ncnc2nc[nH]c12)c1nc2cccc(F)c2c(=O)n1-c1ccccc1	> 100 µM
Cc1ccc(NC=O)c(-c2c(N)[nH]c(=S)[nH]c2=O)c1	> 100 µM

## Input Which value of TGI has been reported for [N-]=[N+]=NC1OC(=O)C(Cl)=C1N=P(c1ccccc1)(c1ccccc1)c1ccccc1 (centres undefined) in the records?
## Output > 10 µM

## Input Which value of TGI has been reported for Cc1c2c3ccccc3nc-2n(C)c2ccccc12 in the records?
## Output 10.8 µM

## Input Which value of TGI has been reported for [O-][N+](=Nc1ccccc1CO)c1ccccc1CO in the records?
## Output > 100 µM

## Input Which value of TGI has been reported for COc1cc2nc(SCc3cc(OC)c(OC)c(OC)c3)n(Cc3ccccc3)c(=O)c2cc1OC in the records?
## Output 16.2 µM

## Input Which value of TGI has been reported for CC(C)(C)OC(=O)N(CCCCNC(=O)OCc1ccccc1)CCCNC(=O)OCc1ccccc1 in the records?
## Output > 100 µM

Where do these numbers come from? They come from PubChem BioAssay (NCI).
